pIC50: −log10 of the molar value.
Let's look at some pIC50 data for Cytochrome P450 2C9 (Homo sapiens) that I collected from the literature.

[
  {
    "COMPOUND": "O=C(c1cc(Cl)c(O)c(Cl)c1)N1c2ccccc2Oc2ccccc21",
    "pIC50": 5.22
  },
  {
    "COMPOUND": "C[C@]1(c2cc(NC(=O)c3ccc(F)cn3)ccc2F)N=C(N)O[C@H](CF)[C@@H]1OCC(F)(F)F",
    "pIC50": "≤ 5.00"
  },
  {
    "COMPOUND": "Nc1ccc2c(c1)OCCN2C(=O)c1cc(Cl)c(O)c(Cl)c1",
    "pIC50": 4.82
  },
  {
    "COMPOUND": "CC(F)(F)[C@H]1OC(N)=N[C@](C)(c2cc(NC(=O)c3cnc(OCC(F)F)cn3)ccc2F)[C@H]1F",
    "pIC50": "≤ 5.00"
  },
  {
    "COMPOUND": "Cc1cc(C)c2c(c1)N(CCC(=O)O)C(=O)[C@@H](CC(C)C)O2",
    "pIC50": "< 4.30"
  },
  {
    "COMPOUND": "COc1cc(N2CCc3nc(NC(=O)NCC(=O)O)sc3C2)nc(OC)n1",
    "pIC50": "< 4.70"
  },
  {
    "COMPOUND": "NC(=O)c1cc(COc2nnc(Nc3ccc(Cl)cc3)c3ccccc23)ccn1",
    "pIC50": 6.02
  },
  {
    "COMPOUND": "COc1cc2c(N[C@@H]3CCCNC3)nc(N3CCCC3)nc2cc1OCCCN1CCCC1",
    "pIC50": "< 4.00"
  },
  {
    "COMPOUND": "O=C(c1cc(Cl)c(O)c(Cl)c1)N1CCCCc2ccccc21",
    "pIC50": 4.68
  },
  {
    "COMPOUND": "CC(C)(O)CNc1ncnc2[nH]cc(C(=O)c3ccc(Nc4ccc(C5CC5)nc4)nc3F)c12",
    "pIC50": "5.00 to 5.30"
  },
  {
    "COMPOUND": "O=C(c1ccc(NC2CCC(F)(F)CC2)nc1)c1c[nH]c2ncnc(NCC(F)(F)F)c12",
    "pIC50": "< 5.00"
  },
  {
    "COMPOUND": "CC(C)c1cccc2c1OC(C(C)C)C(=S)N2CCC(=O)O (centres unmarked)",
    "pIC50": "< 4.30"
  },
  {
    "COMPOUND": "Cn1ncc2c1N(C(=O)c1cc(Br)c(O)c(Br)c1)CCO2",
    "pIC50": "< 4.30"
  },
  {
    "COMPOUND": "FC1(F)CCC(Nc2ncc(Cc3c[nH]c4ncc(Cl)cc34)cn2)CC1",
    "pIC50": "< 5.00"
  },
  {
    "COMPOUND": "O=S(=O)(NCC1CC1)Nc1ncnc(OCCOc2ncc(Br)cn2)c1-c1ccc2scnc2c1",
    "pIC50": "< 4.30"
  },
  {
    "COMPOUND": "COc1cc2ccc(C(C(C)C)n3ncnn3)cc2cc1OC (centres unmarked)",
    "pIC50": 5.32
  },
  {
    "COMPOUND": "Clc1ccc(Nc2ncc(Cc3c[nH]c4ncc(Cl)cc34)cn2)cc1",
    "pIC50": "< 5.00"
  },
  {
    "COMPOUND": "CO[C@H]1CN(C2CCN(C(=O)c3cncn3[C@@H](C)c3ccccc3-c3ccc(F)cc3)CC2)C[C@@H]1O",
    "pIC50": "< 5.00"
  },
  {
    "COMPOUND": "CCOc1ncnc2[nH]cc(Cc3ccc(Nc4cnn(CC)c4)nc3F)c12",
    "pIC50": "< 5.00"
  },
  {
    "COMPOUND": "COc1ccc2c(c1OCc1ccccc1)C[C@@H](C(=O)O)N(C(=O)[C@@H](O[C@H]1CC[C@@H](O)CC1)c1ccccc1)C2",
    "pIC50": "< 4.30"
  },
  {
    "COMPOUND": "C[C@@H]1CN(C2CCN(C(=O)c3cncn3[C@@H](C)c3ccccc3-c3ccc(F)cc3)CC2)CC[C@H]1O",
    "pIC50": "< 5.00"
  },
  {
    "COMPOUND": "C[C@@H]1CN(S(=O)(=O)c2ccc(Cl)cc2)C[C@@H]1n1nc(CC(=O)O)c2ccc(F)cc21",
    "pIC50": "< 4.70"
  },
  {
    "COMPOUND": "O=C(O)c1ccc(C(=O)N2CCOc3ccccc32)cc1",
    "pIC50": "< 4.30"
  },
  {
    "COMPOUND": "CC[C@@H](C#N)NC(=O)c1ccc(-c2nc(Nc3cnn(CC#N)c3)ncc2C)cc1",
    "pIC50": "< 4.30"
  },
  {
    "COMPOUND": "NC(=O)c1cc(COC2=NN=C(Nc3ccc(Cl)cc3)C3C=CSC23)ccn1 (centres unmarked)",
    "pIC50": 5.33
  },
  {
    "COMPOUND": "O=C(O)COc1c(Cl)cc(C(=O)N2CCOc3ccccc32)cc1Cl",
    "pIC50": "< 4.30"
  },
  {
    "COMPOUND": "CC(C)NC(=O)c1ccc(C(=O)Nc2cc3n(n2)CCN3c2ccc3c(c2)CCN(C)C3=O)s1",
    "pIC50": "< 4.70"
  },
  {
    "COMPOUND": "CCc1ccc(Nc2ccc(Cc3c[nH]c4ncnc(C5CC5)c34)c(F)n2)cn1",
    "pIC50": "5.00 to 5.30"
  },
  {
    "COMPOUND": "CN1CCN(c2ncc(S(=O)(=O)N3CCN(Cc4cncn4CCOc4ccc(Cl)cc4)CC3)s2)CC1",
    "pIC50": 5.81
  }
]

* * *

IC50 for Cytochrome P450 2C9 (Homo sapiens), merged from several publications.
PROPERTY NAME: IC50

[
  {
    "COMPOUND": "Cc1ccc(Cn2c(=O)n([C@@H](C)[C@@H](C)C(=O)O)c(=O)[nH]/c2=N\\c2ccc(Oc3cccc(F)n3)cc2)cc1",
    "RESULT": "> 20 µM"
  },
  {
    "COMPOUND": "N#Cc1ccc(C(=O)Nc2ccc(F)c([C@@]3(C(F)F)N=C(N)O[C@@H]4CC(F)(F)C[C@@H]43)c2)nc1",
    "RESULT": "> 10 µM"
  },
  {
    "COMPOUND": "O=C(c1ccc(O)c(Br)c1)N1CCOc2ccccc21",
    "RESULT": "37 µM"
  },
  {
    "COMPOUND": "COc1cc2c(NC3CCOCC3)nc(N3CCN(C)CC3)nc2cc1OCCCN1CCCC1",
    "RESULT": "> 100 µM"
  },
  {
    "COMPOUND": "CC[C@@H](C#N)NC(=O)c1ccc(-c2nc(Nc3cnn(C4CCNCC4)c3)ncc2Cl)cc1",
    "RESULT": "3.18 µM"
  },
  {
    "COMPOUND": "O=C(c1cc(Cl)c(O)c(Cl)c1)N1CCOc2cc([N+](=O)[O-])ccc21",
    "RESULT": "20 µM"
  },
  {
    "COMPOUND": "CC(C)c1cccc2c1OC(C(C)C)C(=O)N2CC(=O)O (stereo not drawn)",
    "RESULT": "30 µM"
  },
  {
    "COMPOUND": "C[C@H](c1ccc(F)cc1)n1cncc1CN1CCN(S(=O)(=O)c2cnc(N3CCN4C[C@H](O)C[C@H]4C3)s2)CC1",
    "RESULT": "4.46 µM"
  },
  {
    "COMPOUND": "C[C@]1(c2cc(NC(=O)c3ccc(F)cn3)ccc2F)N=C(N)OCC12CC(F)(F)C2",
    "RESULT": "≥ 20 µM"
  },
  {
    "COMPOUND": "C[C@H](c1ccc(F)cc1)n1cncc1CN1CCN(S(=O)(=O)c2cnc(N3CCNCC3)cn2)CC1",
    "RESULT": "> 10 µM"
  },
  {
    "COMPOUND": "Cc1cc(C)c2c(c1)N(CCC(=O)O)C(=O)[C@@H](C(C)C)O2",
    "RESULT": "> 50 µM"
  },
  {
    "COMPOUND": "C[C@@H](c1ccccc1-c1ccc(F)cc1)n1cncc1C(=O)N1CCC2NC(=O)COC2(C)C1 (stereo partly drawn)",
    "RESULT": "> 10 µM"
  },
  {
    "COMPOUND": "CNC(=O)c1cc(COc2nnc(Nc3ccc(OC)cc3)c3ccoc23)ccn1",
    "RESULT": "> 20 µM"
  },
  {
    "COMPOUND": "CCS(=O)(=O)Nc1cccc(Oc2cc(=O)n(C)c(Nc3ccc(I)cc3F)c2C(N)=O)c1C",
    "RESULT": "> 50 µM"
  },
  {
    "COMPOUND": "Cc1cnc2[nH]cc(Cc3cnc(Nc4ccc(F)cc4)nc3)c2c1",
    "RESULT": "> 10 µM"
  },
  {
    "COMPOUND": "C[C@@H](c1ccccc1-c1ccc(F)cc1)n1cncc1C(=O)N1CCC(NC2CCC(O)CC2)CC1 (stereo partly drawn)",
    "RESULT": "> 10 µM"
  },
  {
    "COMPOUND": "Cc1ccc(Cn2c(=O)n(CC(C)(C)C(=O)O)c(=O)[nH]/c2=N\\c2ccc(Oc3ccc(F)cn3)cc2)cc1",
    "RESULT": "> 20 µM"
  },
  {
    "COMPOUND": "O=C1Cc2ccc(NC(=O)c3ccccc3NCc3ccc(=O)[nH]c3)cc2N1",
    "RESULT": "23 µM"
  },
  {
    "COMPOUND": "C[C@H](c1ccc(F)cc1)n1cncc1C1CCCC2CN(S(=O)(=O)c3cnc(Nc4ccccn4)s3)CCN21 (single isomer, unassigned)",
    "RESULT": "1.22 µM"
  },
  {
    "COMPOUND": "NC1=N[C@](CF)(c2cc(NC(=O)c3nn(C(F)F)cc3Cl)ccc2F)C[C@@H](C(F)(F)F)O1",
    "RESULT": "> 50 µM"
  },
  {
    "COMPOUND": "CCc1ccc(Nc2ccc(C(=O)c3c[nH]c4ncc(C)cc34)c(F)n2)cn1",
    "RESULT": "> 10 µM"
  }
]
